- System: SNB-78 CNS
- assayName: NCI tumour cell line growth inhibition, 48 h
# TGI annotations

Take a look at these entries with their results.
Field request: TGI | item: CNC(SC)=C1C(=O)OC(C)(C)OC1=O
> 100 µM

# get_value(readout='TGI', item= C=CCC1[C@@H](C(C)(C)C(C(C)=O)C(=O)C(=O)OC)OC(C(C)(C)C)N1C(=O)OC (some centres undefined) )
> 100 µM

Give the measured TGI of CC(=O)O[C@]12CCCCCC1C1(O)C(O)CCC[C@H]12 (some centres undefined) .
> 100 µM

I am curious: what TGI value has been reported for CCCCCCCCCCCCCC(=O)OCC1OC(=O)CC1O (centres undefined) ?
> 100 µM

***
Form field: reported TGI of CC(=O)OC1COC(n2c(=S)n(-c3ccccc3)c(=O)c3cc(Br)ccc32)C(OC(C)=O)C1OC(C)=O (centres undefined)
> 100 µM

Which TGI is reported for this molecule? CCOC(=O)/C=C(\C)c1ccc(C)cc1C
> 100 µM

// query TGI value for entry CSc1c(C)c(C)nn1-c1ccccc1
> 100 µM

What measured TGI goes with O=C(NC(Cc1ccc(I)cc1)C(=O)O)c1ccc(I)cc1 (centres undefined) ?
> 100 µM

Consider the molecule O=C1C=CC(=O)N1Nc1ccc([N+](=O)[O-])cc1[N+](=O)[O-] and give its measured TGI.
> 100 µM

Every entry's value here was drawn from PubChem BioAssay (NCI).
